Tested on: NCI-60 cancer cell lines
Assay: NCI-60 cancer cell line drug screen (GI50, MGM)
Format: cell-based, human
Conditions: Homo sapiens, K562, Leukemia, K-562; read-out: Antiproliferative Activities [GI50 (μM)]
Each entry below lists one item and its recorded GI50 value.
measure name: GI50 (µM)

[[record]]
compound = "COc1cnc2c(c1)C(=O)c1c-2n(CCCNC(C)C)c(=O)c2cc(F)ccc12 [Compound 5]"
experimental_system = "NCI-60 cancer cell lines"
measure_name = "GI50"
value_observed = 0.13

[[record]]
compound = "CN(C)CCCn1c2c(c3ccc(-c4ccn[nH]4)cc3c1=O)C(=O)c1ccccc1-2 [Compound 30]"
experimental_system = "NCI-60 cancer cell lines"
measure_name = "GI50"
value_observed = 0.34

[[record]]
compound = "CNCCCn1c2c(c3ccc(Cl)cc3c1=O)C(=O)c1cc(OC)cnc1-2 [Compound 3]"
experimental_system = "NCI-60 cancer cell lines"
measure_name = "GI50"
value_observed = 1.14

[[record]]
compound = "CN(C)CCCn1c2c(c3ccc(N4CCNCC4)cc3c1=O)C(=O)c1ccccc1-2 [Compound 25]"
experimental_system = "NCI-60 cancer cell lines"
measure_name = "GI50"
value_observed = 0.83

[[record]]
compound = "COc1cc2c3c(n(CCCN)c(=O)c2cc1OC)-c1cc2c(cc1C3=O)OCO2 [Compound 45]"
experimental_system = "NCI-60 cancer cell lines"
measure_name = "GI50"
value_observed = 0.09

[[record]]
compound = "COc1cc2c(=O)n(CCCN3CCOCC3)c3c(c2cc1OCCCN1CCCC1)C(=O)c1cc2c(cc1-3)OCO2 [Compound 55]"
experimental_system = "NCI-60 cancer cell lines"
measure_name = "GI50"
value_observed = 0.19

[[record]]
compound = "CNCCCn1c2c(c3ccc(F)cc3c1=O)C(=O)c1cc(OC)cnc1-2 [Compound 6]"
experimental_system = "NCI-60 cancer cell lines"
measure_name = "GI50"
value_observed = 0.17

[[record]]
compound = "CNCCCn1c2c(c3ccc([N+](=O)[O-])cc3c1=O)C(=O)c1cc(OC)cnc1-2 [Compound 10]"
experimental_system = "NCI-60 cancer cell lines"
measure_name = "GI50"
value_observed = 0.04


----------
Each entry below lists one item and its recorded GI50 value.
Test system: NCI-60 cancer cell lines
Assay: NCI-60 cancer cell line drug screen (GI50, MGM)
Format: cell-based, human
Conditions: Homo sapiens, Renal Cancer, U0-31; read-out: Antiproliferative Activities [GI50 (μM)]
measure name: GI50 (µM)

[[record]]
compound_smiles = "COc1cc2c(cc1O)-c1c(c3ccc([N+](=O)[O-])cc3c(=O)n1CCCN1CCOCC1)C2=O"
value_prefix = "="
value_observed = 0.07

[[record]]
compound_smiles = "COc1cnc2c(c1)C(=O)c1c-2n(CCCNC(C)C)c(=O)c2cc(F)ccc12"
value_prefix = "="
value_observed = 0.08

[[record]]
compound_smiles = "O=C1c2ccccc2-c2c1c1ccccc1c(=O)n2CCCNCCO"
value_prefix = "="
value_observed = 0.1

[[record]]
compound_smiles = "COc1cc2c(cc1O)-c1c(c3ccc([N+](=O)[O-])cc3c(=O)n1CCCN)C2=O"
value_prefix = "="
value_observed = 0.69

[[record]]
compound_smiles = "COc1cc2c3c(n(CCCn4ccnc4)c(=O)c2cc1OC)-c1cc2c(cc1C3=O)OCO2"
value_prefix = "="
value_observed = 0.03

[[record]]
compound_smiles = "COc1cnc2c(c1)C(=O)c1c-2n(CCCN2CCCC2)c(=O)c2cc([N+](=O)[O-])ccc12"
value_prefix = "<"
value_observed = 0.01

[[record]]
compound_smiles = "COc1ccc2c(c1)C(=O)c1c-2n(CCCN2CCOCC2)c(=O)c2ccccc12"
value_prefix = "="
value_observed = 0.42

[[record]]
compound_smiles = "CNCCCn1c2c(c3ccc(Cl)cc3c1=O)C(=O)c1cc(OC)cnc1-2"
value_prefix = "="
value_observed = 1.08


----------
Biological target: K-RasG4 (parallel K-Ras promoter G4)
Assay: Competition fluorescence displacement, competitor K-Ras G4
Settings: competitor binding affinity; 20 nM 3′-TAMRA MycPu22, 20 nM compound, 20° C., pH 7, 100 mM K+
measure name: Ki

[[record]]
molecule = "CNCCCn1c2c(c3ccc(F)cc3c1=O)C(=O)c1cc(OC)cnc1-2 [Compound 6]"
value_observed = "32 nM"

[[record]]
molecule = "COc1cnc2c(c1)C(=O)c1c-2n(CCCN2CCCC2)c(=O)c2cc([N+](=O)[O-])ccc12 [Compound 9]"
value_observed = "11 nM"

[[record]]
molecule = "O=C1c2ccccc2-c2c1c1ccccc1c(=O)n2CCCNCCO [Compound 13]"
value_observed = "23 nM"

[[record]]
molecule = "COc1cnc2c(c1)C(=O)c1c-2n(CCCNC(C)C)c(=O)c2cc(F)ccc12 [Compound 5]"
value_observed = "21 nM"

[[record]]
molecule = "COc1cnc2c(c1)C(=O)c1c-2n(CCCNC2=NCCS2)c(=O)c2cc([N+](=O)[O-])ccc12 [Compound 12]"
value_observed = "7 nM"


----------
Tested on: NCI-60 cancer cell lines
Assay: NCI-60 cancer cell line drug screen (GI50, MGM)
Type: cell-based, human
Settings: Homo sapiens, LOX IMVI, Melanoma, LOX IMVI; read-out: Antiproliferative Activities [GI50 (μM)]
measure name: GI50 (µM)

[[record]]
compound_smiles = "COc1cnc2c(c1)C(=O)c1c-2n(CCCNC(C)C)c(=O)c2cc(F)ccc12"
measure_name = "GI50"
value_prefix = "="
value_observed = 0.11

[[record]]
compound_smiles = "COc1cc2c3c(n(CCCn4ccnc4)c(=O)c2cc1OC)-c1cc2c(cc1C3=O)OCO2"
measure_name = "GI50"
value_prefix = "="
value_observed = 0.06

[[record]]
compound_smiles = "CNCCCn1c2c(c3ccc(F)cc3c1=O)C(=O)c1cc(OC)cnc1-2"
measure_name = "GI50"
value_prefix = "="
value_observed = 0.14

[[record]]
compound_smiles = "COc1cnc2c(c1)C(=O)c1c-2n(CCCN2CCCC2)c(=O)c2cc([N+](=O)[O-])ccc12"
measure_name = "GI50"
value_prefix = "<"
value_observed = 0.01

[[record]]
compound_smiles = "COc1cc2c(cc1O)-c1c(c3ccc([N+](=O)[O-])cc3c(=O)n1CCCn1ccnc1)C2=O"
measure_name = "GI50"
value_prefix = "="
value_observed = 0.3

[[record]]
compound_smiles = "CNCCCn1c2c(c3ccc([N+](=O)[O-])cc3c1=O)C(=O)c1cc(OC)cnc1-2"
measure_name = "GI50"
value_prefix = "="
value_observed = 0.03

[[record]]
compound_smiles = "CN(C)CCCn1c2c(c3cccnc3c1=O)C(=O)c1ccccc1-2"
measure_name = "GI50"
value_prefix = "="
value_observed = 0.81


----------
Test system: NCI-60 cancer cell lines
Assay: NCI-60 cancer cell line drug screen (GI50, MGM)
Assay type: cell-based, human
Conditions: Homo sapiens, HOP-92, Non-Small Cell Lung Cancer, HOP-92; read-out: Antiproliferative Activities [GI50 (μM)]
Procedure: Cancer cells were incubated with the test compounds at five concentrations ranging from 100 μM to 10 nM for 48 h. […] The approximate average of GI50 values across the entire panel of NCI-60 cancer cell lines for each compound was recorded as the MGM value.
Entries whose GI50 is below 1 µM take TRUE; entries at or above 1 µM take FALSE.

[[record]]
compound_smiles = "COc1cc2c3c(n(CCCNC4=NCCS4)c(=O)c2cc1OC)-c1cc2c(cc1C3=O)OCO2"
experimental_system = "NCI-60 cancer cell lines"
class = "TRUE"

[[record]]
compound_smiles = "COc1cc2c3c(n(CCCNCCN)c(=O)c2cc1OC)-c1cc2c(cc1C3=O)OCO2"
experimental_system = "NCI-60 cancer cell lines"
class = "FALSE"

[[record]]
compound_smiles = "COc1cc2c3c(n(CCCN(C)C)c(=O)c2cc1OC)-c1cc2c(cc1C3=O)OCO2"
experimental_system = "NCI-60 cancer cell lines"
class = "FALSE"

[[record]]
compound_smiles = "COc1cnc2c(c1)C(=O)c1c-2n(CCCN2CCCC2)c(=O)c2cc([N+](=O)[O-])ccc12"
experimental_system = "NCI-60 cancer cell lines"
class = "TRUE"

[[record]]
compound_smiles = "COc1cc2c3c(n(CCCN)c(=O)c2cc1OC)-c1cc2c(cc1C3=O)OCO2"
experimental_system = "NCI-60 cancer cell lines"
class = "FALSE"

[[record]]
compound_smiles = "COc1cnc2c(c1)C(=O)c1c-2n(CCCNC2=NCCS2)c(=O)c2cc([N+](=O)[O-])ccc12"
experimental_system = "NCI-60 cancer cell lines"
class = "FALSE"

[[record]]
compound_smiles = "COc1cc2c(=O)n(CCCN3CCOCC3)c3c(c2cc1OCCCN1CCCC1)C(=O)c1cc2c(cc1-3)OCO2"
experimental_system = "NCI-60 cancer cell lines"
class = "FALSE"

[[record]]
compound_smiles = "CNCCCn1c2c(c3ccc([N+](=O)[O-])cc3c1=O)C(=O)c1cc(OC)cnc1-2"
experimental_system = "NCI-60 cancer cell lines"
class = "TRUE"

